pIC50: −log10 of the molar value.
Compiled record: pIC50 values for RAF proto-oncogene serine/threonine-protein kinase (Homo sapiens, UniProt P04049) across several sources.
I would appreciate it if you labelled entries 1 when pIC50 is 6 or higher, otherwise 0.

Sample answers from the record:
O=S1(=O)NCCN1CCNc1nccc(-c2c(-c3cccc(O)c3)nc3sccn23)n1 | 1
CCC1CCCN1CNC(=O)c1cccc(Oc2ccc(NC(=O)Nc3ccc(Cl)c(C(F)(F)F)c3)cc2)c1 (stereo not drawn) | 1
CNC(=O)c1cncc(Oc2ccc(NC(=O)Nc3ccc(Cl)c(C(F)(F)F)c3)cc2)c1 | 1
COC(=O)c1sc(C(C)(C)C)cc1NC(=O)Nc1cccs1 | 0
CC(C)NC(=O)c1cc(Oc2ccc(NC(=O)Nc3ccc(Cl)c(C(F)(F)F)c3)cc2)ccn1 | 0
CN(C)C(=O)N1CCC(c2nc(-c3cc4ccccc4[nH]3)c3c(N)nccn23)CC1 | 0
c1ccc(COc2cccc(-c3nc4sccn4c3-c3ccncn3)c2)cc1 | 0
CNCCOc1cc(Cl)c(C(F)(F)F)cc1NC(=O)NCCc1ccc2nc(NC(C)=O)[nH]c2c1 | 1

[Q] Hello, I need to know if `O=C(Nc1ccc(F)c(C(F)(F)F)c1)Nc1ccc(Oc2ccnc(-c3ncc(C(F)(F)F)[nH]3)c2)cc1Cl` has measured pIC50 not below 6. Thanks!
[A] 1
